- PROCEDURE_TEXT: APR_HepG2_P-H2AX_24hr: Apredica 24-hour HepG2 Assay for H2AX Phosphorylation (AID 2282920)
- CONDITION_NOTES: high-content imaging, actives raise or lower the signal
Calls of active or inactive are those of the source. How the source made its calls: active means hit-call score of the fitted dose curve at least 0.9, where 1 is the maximum; inactive means score below 0.9.
Field 'call' accepts active, inactive

Answered examples (5):
[
  {
    "LINE_NOTATION": "N=C(N)c1ccc(OCCCCCOc2ccc(C(=N)N)cc2)cc1",
    "QUALITATIVE_LABEL": "active"
  },
  {
    "LINE_NOTATION": "CN(Cc1cnc2nc(N)nc(N)c2n1)c1ccc(C(=O)N[C@@H](CCC(=O)O)C(=O)O)cc1",
    "QUALITATIVE_LABEL": "inactive"
  },
  {
    "LINE_NOTATION": "O=C1NS(=O)(=O)c2ccccc21",
    "QUALITATIVE_LABEL": "inactive"
  },
  {
    "LINE_NOTATION": "O=C(c1ccccc1)c1ccccc1",
    "QUALITATIVE_LABEL": "inactive"
  },
  {
    "LINE_NOTATION": "CCCCCCCCCCCCOS(=O)(=O)O",
    "QUALITATIVE_LABEL": "inactive"
  }
]

In the following, a different compound is considered.
Which outcome was entered for the compound `CS(=O)(=O)c1ccc([C@@H](CC2CCCC2)C(=O)Nc2cnccn2)cc1Cl` in this test?
inactive

Values compiled from PubChem BioAssay (EPA / NIEHS).
